# phosphorylation enrichment per record follows
# TARGET DESC: Hck (UniProt P08631)
# Sequence (P08631 whole entry, looked up): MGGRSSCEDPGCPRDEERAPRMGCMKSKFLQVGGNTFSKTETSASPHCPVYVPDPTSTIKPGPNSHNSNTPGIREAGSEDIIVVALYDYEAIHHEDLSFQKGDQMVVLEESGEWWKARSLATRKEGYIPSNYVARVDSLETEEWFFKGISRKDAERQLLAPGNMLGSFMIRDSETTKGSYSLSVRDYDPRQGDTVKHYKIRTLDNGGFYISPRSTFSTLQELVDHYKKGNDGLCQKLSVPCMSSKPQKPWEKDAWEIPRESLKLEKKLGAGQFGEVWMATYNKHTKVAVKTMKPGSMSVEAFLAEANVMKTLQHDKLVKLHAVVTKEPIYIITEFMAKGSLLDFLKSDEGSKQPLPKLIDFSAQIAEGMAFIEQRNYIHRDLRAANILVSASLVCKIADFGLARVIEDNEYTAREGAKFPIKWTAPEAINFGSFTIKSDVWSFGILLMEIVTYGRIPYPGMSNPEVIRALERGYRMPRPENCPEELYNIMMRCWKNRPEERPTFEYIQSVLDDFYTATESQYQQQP
# RUN DESCRIPTION: phosphorylation enrichment, bacterial display (enrichment ratio); higher = better substrate or ligand; peptides without Tyr show the background;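 also: 11-residue human phosphosite peptides and single-mutation variants displayed on the E. coli surface, counted by deep sequencing, each peptide's frequency after selection divided by its frequency in the unselected input library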;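 also: frequency after pTyr selection over input frequency; kinase dosed for 20-30% of maximal phosphorylation in three min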

LAEMNYVHRDL [EPHB1_Y740]: 0.362
TEDAEYDVQSK [PTCHD3_Y335_P333A]: 0.591
IRKTEYPFSSE [ATP2C1_Y452_A450T]: 0.405
DEENFYQGSME [ASCC1_Y36_D34N]: 0.7
PQEVMYAQLDH [KIR3DL2_Y398_T397M]: 5.19

[ask] Request the reported phosphorylation enrichment associated with GGYNNYGYGSD [HNRNPH3_Y159_N163S]
[reply] 0.475

[ask] Request the reported phosphorylation enrichment associated with PESCLYKESWL [IQGAP2_Y630]
[reply] 1.5

[ask] Request the reported phosphorylation enrichment associated with EQSGSYIWVLA [DLG1_Y895_P899L]
[reply] 0.517

[ask] Request the reported phosphorylation enrichment associated with YGSSSYRGAGG [RPA2_Y14_G15R]
[reply] 0.443

Source of measurements: the supplement of paper PMC10065799
